- Tested on: morningglory (Ipomea lacunosa or Ipomea hederacea)
- Assay overview: Postemergence herbicidal activity, morningglory
- Assay type: in vivo
- Measurement parameters: rate of application 0.3 Kg/Ha, rated after 12-17 days
Known Postemergence herbicidal activity (% control) IPOSS of a selection of compounds
Please respond with the number in % and leave the unit unwritten.

Field: example entries. Status: answers known.
Query smiles	Measured target	Experimental result
Cn1c(C(F)(F)F)cc(=O)n(-c2c(F)cc(Cl)c3[nH]cnc23)c1=O	morningglory (Ipomea lacunosa or Ipomea hederacea)	100
Cn1c(C(F)(F)F)cc(=O)n(-c2c(F)cc(Cl)c3nc(Cc4ccccc4Cl)[nH]c23)c1=O	morningglory (Ipomea lacunosa or Ipomea hederacea)	100
CCN(CC)Cc1cc2c(Cl)ccc(-n3c(=O)cc(C(F)(F)F)n(C)c3=O)c2o1	morningglory (Ipomea lacunosa or Ipomea hederacea)	60
CCOC(=O)c1cc2cccc(-n3c(=O)cc(C(F)(F)F)n(C)c3=O)c2o1	morningglory (Ipomea lacunosa or Ipomea hederacea)	40
Cn1c(C(F)(F)F)cc(=O)n(-c2c(F)cc(Br)c3oc(N)nc23)c1=O	morningglory (Ipomea lacunosa or Ipomea hederacea)	20
C=Cc1cc2c(Cl)cc(F)c(-n3c(=O)cc(C(F)(F)F)n(C)c3=O)c2o1	morningglory (Ipomea lacunosa or Ipomea hederacea)	100
Cc1nc2c(-n3c(=O)cc(C(F)(F)F)n(C)c3=O)c(F)cc(Br)c2o1	morningglory (Ipomea lacunosa or Ipomea hederacea)	100

Here's the next entry for you.
q: So what does the record say about Postemergence herbicidal activity (% control) IPOSS for "Cn1c(C(F)(F)F)cc(=O)n(-c2ccc(Cl)c3cc(C=NO)oc23)c1=O" ?
a: 70
